test.summary: Plasma level in mice
Type: in vivo
measurement.conditions: iv, mouse, 15 minutes after i.v. dosing
quantity.kind: concentration at 15 min (ng/mL)
Express it in ng/mL; write the number only.

Exercise: Query concentration at 15 min for CN1C(=O)c2c(nn(Cc3ccc(-c4cccc(F)n4)cc3)c2Nc2ccccc2)N2C1=N[C@@H]1CCC[C@@H]12 [Compound 1]
Solution: 334

###

test.summary: Plasma Compound 1 levels in dogs (LC/MS-MS)
Format: in vivo
measurement.conditions: mongrel, dog, plasma, po, 10 mg, plasma Compound 1 concentration, normal dogs, 10 mg P.O., 120 min post dose
Protocol: Dogs are studied in the conscious state before and after inducing dilated cardiomyopathy by tachypacing for two weeks at 200 bpm. The study employs two doses, 0.01 and 0.1 mg/kg, the latter administered 30 minutes after the first. Intravenous blood is placed in K2EDTA tubes, centrifuged at 2,000 g for 15 min, plasma decanted, and stored frozen. Compound 1 levels are assessed by a rapid, sensitive liquid chromatography-tandem mass spectrometric (LC/MS-MS) method. […]
quantity.kind: concentration at 120 min
Kindly format the answer as number then unit.

Exercise: Determine from records and report concentration at 120 min for CN1C(=O)c2c(nn(Cc3ccc(-c4cccc(F)n4)cc3)c2Nc2ccccc2)N2C1=N[C@@H]1CCC[C@@H]12 [Compound 1]
Solution: 104 ng/mL
